Below is a list of entries, each paired with its recorded inhibition value.
systemName: SULT1A3 (Homo sapiens)
testDescription: SULT1A3 inhibition studies, 1-HP initial-rate fluorescence assay
Type: biochemical
Set-up: Wild-type and mutant SULT1A3 coding regions were inserted into a pGEX-6P expression vector; N-His/GST/MBP triple-tag (N, cleaved yes); made in house; host or cells: E. coli BL21(DE3); dose or concentration left out as unconfirmed
setupConditions: parentheses one standard error; read-out: SULT1A3 Enzyme Inhibition at Saturation/%
Experimental: The initial rates of SULT catalyzed 1-HP sulfonation are plotted as a function of inhibitor concentration, and are normalized relative to [inhibitor]=0. Enzyme activity was monitored by the sulfonation dependent change in 1-HP fluorescence (λex=325 nm, λem=370 nm). […] Initial-Rate Studies. Initial-rate parameters for the labeled or mutant SULT1A3 constructs were determined using a previously described 1-HP assay (25). […]
Report the figure in % without appending any unit label.

Some entries whose results are on file:
CC(C)Cc1ccc2cc(CCC(N)=O)ccc2n1; 83
CCOC(=O)CCc1ccc2cc(CCC(N)=O)ccc2n1; 63
CCCCNC(=O)c1ccc2nc(CC(C)C)ccc2c1; 51
COC(=O)c1ccc2nc3c(cc2c1)C(=O)CC(C)C3 (stereo not shown); 35
CC(C)Cc1ccc2cc(/C=C/C(N)=O)ccc2n1; 65
CC(C)Cc1ccc2cc(CCC(N)=O)cnc2n1; 90
CCCn1cc(-c2ccc3ccc(O)cc3c2)nn1; 16
CC(C)Cc1ccc2cc(/C=C/C(=O)O)cnc2n1; 29.4
CC(C)Cc1ccc2cc(CO)ccc2n1; 54

Suppose we examine the molecule CC1Cc2nc3ccc(C(N)=O)cc3cc2C(O)C1 (stereo not shown) ; what inhibition value has been reported? 52

----------
systemName: SULT1A3 (Homo sapiens)
testDescription: SULT1A3 inhibition studies, 1-HP initial-rate fluorescence assay
Format: biochemical
Design: Wild-type and mutant SULT1A3 coding regions were inserted into a pGEX-6P expression vector; N-His/GST/MBP triple-tag (N, cleaved yes); made in house; host or cells: E. coli BL21(DE3)
setupConditions: WT enzyme; parentheses one standard deviation; read-out: Ki CMP8
readoutKind: Ki (nM)
Please state the figure in nM; there is no need to write the unit.

Could you tell me which Ki is on file for CC(C)Cc1ccc2cc(CO)ccc2n1 [Compound 8, (2-Isobutylquinolin-6-yl)methanol] ? 34

----------
systemName: Rat (1D1) (Rattus norvegicus)
Sequence (G3V9R3 1-295): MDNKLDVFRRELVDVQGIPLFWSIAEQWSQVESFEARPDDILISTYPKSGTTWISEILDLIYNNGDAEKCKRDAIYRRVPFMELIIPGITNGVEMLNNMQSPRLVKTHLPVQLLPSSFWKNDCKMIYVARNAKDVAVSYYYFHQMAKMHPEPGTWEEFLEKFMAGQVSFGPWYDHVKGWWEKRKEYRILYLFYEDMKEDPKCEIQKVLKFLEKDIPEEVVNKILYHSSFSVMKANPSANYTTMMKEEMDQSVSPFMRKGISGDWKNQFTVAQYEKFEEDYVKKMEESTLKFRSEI
readoutKind: pKi
Field pKi (float): negative decimal logarithm of the concentration in molar.

CC(C)Cc1ccc2cc(CCC(N)=O)cnc2n1; 5.96

In the following, a different compound is considered.
Please look up its pKi: `CC(C)Cc1ccc2cc(CCC(N)=O)ccc2n1` 5.60

----------
systemName: Mouse (1D1) (Mus musculus, UniProt Q3UZZ6)
Sequence (Q3UZZ6 whole entry): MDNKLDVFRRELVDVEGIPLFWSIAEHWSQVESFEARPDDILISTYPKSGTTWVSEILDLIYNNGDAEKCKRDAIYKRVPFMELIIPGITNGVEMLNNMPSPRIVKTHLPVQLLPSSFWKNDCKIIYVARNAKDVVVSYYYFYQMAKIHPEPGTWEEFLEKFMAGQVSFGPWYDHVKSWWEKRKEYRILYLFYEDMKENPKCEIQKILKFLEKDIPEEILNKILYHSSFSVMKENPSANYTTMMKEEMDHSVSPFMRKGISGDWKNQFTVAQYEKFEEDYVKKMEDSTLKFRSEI
readoutKind: Ki
Express your answer as a number followed by its unit.

CC(C)Cc1ccc2cc(CCC(N)=O)ccc2n1; 79 nM

Now for the compound whose Ki we want.
Which measured Ki belongs to `CC(C)Cc1ccc2cc(CCC(N)=O)cnc2n1` , tested on Mouse (1D1) (Mus musculus, UniProt Q3UZZ6)? 32 nM

----------
systemName: SULT1A3 (Homo sapiens, UniProt P0DMM9)
Sequence (P0DMM9 whole entry): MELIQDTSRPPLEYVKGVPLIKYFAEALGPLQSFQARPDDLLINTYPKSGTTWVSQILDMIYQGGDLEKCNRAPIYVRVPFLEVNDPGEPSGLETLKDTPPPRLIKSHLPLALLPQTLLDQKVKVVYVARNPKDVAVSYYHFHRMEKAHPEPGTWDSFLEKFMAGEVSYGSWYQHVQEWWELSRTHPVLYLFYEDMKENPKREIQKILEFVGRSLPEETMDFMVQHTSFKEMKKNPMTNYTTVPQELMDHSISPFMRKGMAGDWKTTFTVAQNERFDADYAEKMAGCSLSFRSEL
testDescription: SULT1A3 inhibition studies, 1-HP initial-rate fluorescence assay
Type: biochemical
Parameters: Wild-type and mutant SULT1A3 coding regions were inserted into a pGEX-6P expression vector; N-His/GST/MBP triple-tag (N, cleaved yes); made in house; host or cells: E. coli BL21(DE3)
setupConditions: FIG. 1; read-out: Ki of CMP8 for SULT1A3
readoutKind: pKi
Please note pKi is a logarithmic value: minus log10 of concentration in mol/L. Answer with that number alone.

Reported pKi, compound `CC(C)Cc1ccc2cc(CO)ccc2n1` : ____ 7.47

----------
systemName: SULT1A3 (Homo sapiens, UniProt P0DMM9)
testDescription: Equilibrium binding studies, SULT1A3 intrinsic fluorescence titration
Parameters: Wild-type and mutant SULT1A3 coding regions were inserted into a pGEX-6P expression vector; N-His/GST/MBP triple-tag (N, cleaved yes); made in house; host or cells: E. coli BL21(DE3)
setupConditions: read-out: Kd, determined by fluorescence titration
Description: 4-Tam binding affinities were determined in the absence and presence of saturating PAP. Binding was monitored via ligand-induced changes in SULT1A3 intrinsic florescence (λex=290 nm, λem=340 nm). Fluorescence intensities are normalized relative to [4-Tam]=0. Each data-point is the average of two independent determinations. […] Equilibrium Binding Studies. In all cases, ligand binding to SULT1A3 was monitored via changes in the intrinsic fluorescence of the enzyme (λex=290 nm, λem=340 nm). […]
Reported Kd values follow for various compounds
Reply numerically in nM, unit not repeated.

CC(C)CCc1ccc2cc(CO)ccc2n1; 87

# next compound below
Would you kindly share the measured Kd for `CC(C)c1ccc2cc(CO)ccc2n1` ? 160

----------
systemName: SULT1A3 (Homo sapiens)
testDescription: Dopamine sulfonation by SULT1A3-expressing HME cells
setupConditions: dopamine 100 μM, 24 hours, best-fit titration curve, read-out: EC50, inhibition of dopamine sulfonation
readoutKind: EC50

For the molecule shown here, `CC(C)Cc1ccc2cc(CCC(N)=O)ccc2n1` , give the reported EC50. 250 nM

----------
systemName: SULT1A1 (Homo sapiens)
Sequence (P50225 whole entry): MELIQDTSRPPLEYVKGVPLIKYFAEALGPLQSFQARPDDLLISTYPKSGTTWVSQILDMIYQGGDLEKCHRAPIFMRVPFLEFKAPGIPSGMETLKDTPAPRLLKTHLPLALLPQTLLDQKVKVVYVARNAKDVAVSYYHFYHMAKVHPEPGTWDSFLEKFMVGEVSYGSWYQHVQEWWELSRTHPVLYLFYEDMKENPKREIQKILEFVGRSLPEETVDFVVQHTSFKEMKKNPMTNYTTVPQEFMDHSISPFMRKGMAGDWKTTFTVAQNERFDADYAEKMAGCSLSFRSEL
testDescription: SULT1A1 inhibition, 1-HP initial-rate assay
Format: biochemical
setupConditions: ND = inhibition was not detected at 30 μM compound; parentheses one standard error
Hi! Just check whether Ki is below 6 µM. Below gives y, equal or above gives n.

Consider CCCn1cc(-c2ccc3ncccc3c2)nn1 [Compound 5] . Does its Ki lie strictly below 6 µM? y

----------
systemName: SULT1A1 (Homo sapiens)
testDescription: SULT1A1 inhibition, 1-HP initial-rate assay
Type: biochemical
setupConditions: ND = inhibition was not detected at 30 μM compound; parentheses one standard error; read-out: SULT1A1 Enzyme Inhibition at Saturation/%
Rule: inhibition of 50% or more gives 1.0; anything lower gives 0.0.

CC(C)Cc1ccc2cc(/C=C/C(N)=O)cnc2n1; 1.0
CC(C)Cc1ccc2cc(/C=C/C(N)=O)ccc2n1; 0.0
CC(C)(C)Cc1ccc2cc(CO)ccc2n1; 0.0
CCCn1cc(-c2ccc3ccc(O)cc3c2)nn1; 0.0
O=C(O)/C=C/c1ccc2ncccc2c1 [Compound 10, (E)-3-(quinolin-6-yl)acrylic acid]; 0.0

Evaluate `CCCn1cc(-c2ccc3ncccc3c2)nn1` : inhibition at minimum 50%? 1.0

Is it the case that `Cc1nc2ccc(CO)cc2cc1CC(C)C` has inhibition reaching or exceeding 50%? 0.0

Determine whether this molecule has inhibition no lower than 50%: `COCc1ccc2nc(CC(C)C)ccc2c1` 0.0

Decide: is the reported value of inhibition for `CCCCNC(=O)c1ccc2nc(CC(C)C)ccc2c1` equal to or greater than 50%? 1.0

----------
systemName: Green Monkey (1A3) (Chlorocebus sabaeus, UniProt Z9LO20H8W3)
Sequence (Z9LO20H8W3 1-295): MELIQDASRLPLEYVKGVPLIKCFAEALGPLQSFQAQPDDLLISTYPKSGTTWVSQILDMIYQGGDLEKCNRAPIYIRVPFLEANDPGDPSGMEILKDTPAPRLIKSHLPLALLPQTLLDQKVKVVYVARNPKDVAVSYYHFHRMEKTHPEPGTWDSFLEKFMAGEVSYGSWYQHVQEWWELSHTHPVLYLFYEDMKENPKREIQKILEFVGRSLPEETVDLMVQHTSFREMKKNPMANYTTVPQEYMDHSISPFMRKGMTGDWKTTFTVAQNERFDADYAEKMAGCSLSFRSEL
testDescription: Inhibition of SULT1A3 homologues in different species: Green Monkey
Assay type: biochemical
setupConditions: parentheses one standard error
Listed next: entries and their corresponding pKi.
Please note pKi is a logarithmic value: minus log10 of concentration in mol/L. Answer with that number alone.

Previously resolved entries follow.
CC(C)Cc1ccc2cc(CCC(N)=O)cnc2n1; 7.06
CC(C)Cc1ccc2cc(/C=C/C(N)=O)cnc2n1; 7.14

What value of measured pKi is listed for `CC(C)Cc1ccc2cc(CCC(N)=O)ccc2n1` ? 6.77

----------
Reported pKi is given for each of the following compounds.
systemName: Dog (1D1) (Canis lupus familiaris, UniProt A0A8I3RXJ1)
Sequence (A0A8I3RXJ1 entry or part of it): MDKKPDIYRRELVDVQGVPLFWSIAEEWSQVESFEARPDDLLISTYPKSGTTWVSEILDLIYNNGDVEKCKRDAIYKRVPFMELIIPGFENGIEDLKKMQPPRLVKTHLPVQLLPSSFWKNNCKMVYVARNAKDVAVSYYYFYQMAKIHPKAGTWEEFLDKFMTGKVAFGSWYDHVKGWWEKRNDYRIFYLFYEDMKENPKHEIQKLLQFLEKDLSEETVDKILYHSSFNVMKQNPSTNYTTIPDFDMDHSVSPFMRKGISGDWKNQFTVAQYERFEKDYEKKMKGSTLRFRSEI
testDescription: Inhibition of SULT1A3 homologues in different species: Dog
setupConditions: standard error in neighbouring cell
// pKi is dimensionless: -log10 of concentration (M)

CC(C)Cc1ccc2cc(CCC(N)=O)cnc2n1 [Compound 25]; 7.28

// lookup pKi | system=Dog (1D1) (Canis lupus familiaris, UniProt A0A8I3RXJ1) | key= CC(C)Cc1ccc2cc(/C=C/C(N)=O)cnc2n1 [Compound 23] 6.93

Any idea what pKi came out for CC(C)Cc1ccc2cc(CCC(N)=O)ccc2n1 [Compound 12] on Dog (1D1) (Canis lupus familiaris, UniProt A0A8I3RXJ1)? 7.11

----------
systemName: SULT1A3 spin-labeled at Cys 234 (Homo sapiens, UniProt P0DMM9, K234C)
Sequence (P0DMM9 whole entry K234C): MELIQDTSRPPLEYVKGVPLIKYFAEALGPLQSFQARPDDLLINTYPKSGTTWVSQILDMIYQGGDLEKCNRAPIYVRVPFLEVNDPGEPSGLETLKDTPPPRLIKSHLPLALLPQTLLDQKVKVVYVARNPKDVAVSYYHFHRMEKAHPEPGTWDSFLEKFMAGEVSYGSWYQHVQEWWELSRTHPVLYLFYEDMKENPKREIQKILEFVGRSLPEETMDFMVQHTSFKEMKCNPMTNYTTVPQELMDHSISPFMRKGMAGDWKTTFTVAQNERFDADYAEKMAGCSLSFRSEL
testDescription: Initial-rate parameters, spin-labeled SULT1A3 mutant 234
readoutKind: Ki (nM)
Numbers only here, please. The scale is nM.

# get_value(readout='Ki', item= `CC(C)Cc1ccc2cc(CO)ccc2n1` ) 31
